tested_target: T1, human interleukin 13 receptor subunit alpha 2 (IL-13RA2) (human, UniProt Q14627 27-380)
T1 construct: whole, on cells; also called IL-13Rα2; CD213A2
T1 sequence (looked up): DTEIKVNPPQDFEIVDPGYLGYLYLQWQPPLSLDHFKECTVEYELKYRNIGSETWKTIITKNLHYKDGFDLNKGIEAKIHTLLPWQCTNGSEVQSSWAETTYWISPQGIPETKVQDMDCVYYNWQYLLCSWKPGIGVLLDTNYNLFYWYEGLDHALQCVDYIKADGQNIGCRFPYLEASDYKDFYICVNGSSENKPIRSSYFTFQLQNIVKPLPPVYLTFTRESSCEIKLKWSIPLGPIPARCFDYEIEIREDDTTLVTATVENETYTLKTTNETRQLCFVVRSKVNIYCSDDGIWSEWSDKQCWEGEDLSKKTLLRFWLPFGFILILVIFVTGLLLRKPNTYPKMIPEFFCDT
procedure_summary: FACS on A375 cells
EC50 class ranges: class 0 = under 0.5 nM, class 1 = from 0.5 nM up to 0.9 nM, class 2 = 0.9 nM and over

1) 72B4H4 H1L1 hIgG1 (antibody, V domains shown, humanized, hIgG1) VH: QVQLVQSGAEVKKPGASVKVSCKASGYTFTNYWMNWVRQAPGQGLEWMGRIDAYAGETHYNQKFKDRVTMTRDTSTSTVYMELSSLRSEDTAVYYCARGYGDAYGMDHWGQGTLVTVSS VL: DIQMTQSPSSLSASVGDRVTITCRASESVDNYGISFMNWYQQKPGKAPKLLIYAASRQGSGVPSRFSGSGSGTDFTLTISSLQPEDFATYYCQQSKEVPWTFGQGTKVEIK :: class 1
2) 57F8H3F1 H4L3 hIgG1 (antibody, V domains shown, humanized, hIgG1) VH: QVQLVQSGAEVVKPGASVKLSCKASGYTFTNYWMNWVKQRPGQGLEWIGRIDAYETETHYNQKFRDRAILTVDKSTSTAYMELRSLRSEDTAVYYCARGYGHYYGVDYWGQGTLVTVSS VL: DIQLTQSPSSLSASVGDRVTITCRASENVGNFGISFVNWFQQKPGKAPKLLIYAASNLGSGDPARFSGSGSGTDFTLTISSLQPEDFATYFCQQSKGVPWTFGGGTKVEIK :: class 1
3) 57F8H3F1 H3L4 hIgG1 (antibody, V domains shown, humanized, hIgG1) VH: QVQLVQSGAEVVKPGASVKLSCKASGYTFTNYWMNWVKQAPGQGLEWIGRIDAYETETHYNQKFRDRATLTVDKSTSTVYMELSSLRSEDTAVYYCARGYGHYYGVDYWGQGTLVTVSS VL: DIVLTQSPSSLSASVGDRATITCRASENVGNFGISFVNWFQQKPGKPPKLLIYAASNLGSGDPARFSGSGSGTDFTLTISSLQPEDFATYFCQQSKGVPWTFGGGTKLEIK :: class 2
4) 57F8H3F1 H3L1 hIgG1 (antibody, V domains shown, humanized, hIgG1) VH: QVQLVQSGAEVVKPGASVKLSCKASGYTFTNYWMNWVKQAPGQGLEWIGRIDAYETETHYNQKFRDRATLTVDKSTSTVYMELSSLRSEDTAVYYCARGYGHYYGVDYWGQGTLVTVSS VL: DIQMTQSPSSLSASVGDRVTITCRASENVGNFGISFVNWYQQKPGKAPKLLIYAASNLGSGVPSRFSGSGSGTDFTLTISSLQPEDFATYYCQQSKGVPWTFGQGTKVEIK :: class 1
5) 61H8C1 H4L3 hIgG1 (antibody, V domains shown, humanized, hIgG1) VH: QVQLVQSGAEVAKPGASVKLSCKASGYTFTSYWTQWIKQAPGQGLEGIGAIYPGDDDTSYNQKFKGKATLTADKSTSTAYMQLSSLRSEDTAVYYCARGATLLRPFPYWGQGTLVTVSS VL: DIQMTQSPSSLSTSVGDRVTITCKASQDVSTAVAWYQQKPGKSPKLLIYSASYRYTGVPDRFSGSGSGTDFTFTISSLQPEDFATYSCQQHYSIPPTFGGGTKLEIK :: class 0
6) 61H8C1 H3L2 hIgG1 (antibody, V domains shown, humanized, hIgG1) VH: QVQLVQSGAEVAKPGASVKVSCKASGYTFTSYWTQWIRQAPGQGLEGIGAIYPGDDDTSYNQKFKGRATLTADKSTSTVYMQLSSLRSEDTAVYYCARGATLLRPFPYWGQGTLVTVSS VL: DIQMTQSPSSLSTSVGDRVTITCKASQDVSTAVAWYQQKPGKSPKLLIYSASYRYTGVPSRFSGSGSGTDFTLTISSLQPEDFATYSCQQHYSIPPTFGQGTKLEIK :: class 0
7) 72B4H4 H1L4 hIgG1 (antibody, V domains shown, humanized, hIgG1) VH: QVQLVQSGAEVKKPGASVKVSCKASGYTFTNYWMNWVRQAPGQGLEWMGRIDAYAGETHYNQKFKDRVTMTRDTSTSTVYMELSSLRSEDTAVYYCARGYGDAYGMDHWGQGTLVTVSS VL: DIVLTQSPSSLSASVGDRATITCRASESVDNYGISFMNWFQQKPGKPPKLLIYAASRQGSGDPARFSGSGSGTDFTLTISSLQPEDFATYFCQQSKEVPWTFGGGTKLEIK :: class 2
8) 61H8C1 H2L2 hIgG1 (antibody, V domains shown, humanized, hIgG1) VH: QVQLVQSGAEVAKPGASVKVSCKASGYTFTSYWTQWIRQAPGQGLEGMGAIYPGDDDTSYNQKFKGRVTMTADTSTSTVYMELSSLRSEDTAVYYCARGATLLRPFPYWGQGTLVTVSS VL: DIQMTQSPSSLSTSVGDRVTITCKASQDVSTAVAWYQQKPGKSPKLLIYSASYRYTGVPSRFSGSGSGTDFTLTISSLQPEDFATYSCQQHYSIPPTFGQGTKLEIK :: class 0
